Molecular target: HRgpA-6H (Porphyromonas gingivalis) (UniProt P28784)
Assay: ELISA, FASEBA screening, coated HRgpA-6H; variant OD over parental WT Fab OD
Known Ratio OD(Variant)/OD(WT) of a selection of binders
VALUE_KIND: Ratio OD(Variant)/OD(WT)

BINDER	VALUE_KIND	NUMERIC_RESULT
KB001 parental mouse Fab FASEBA variant VH S65R (Fab, V domains shown) VH: EVQLKQSGPGLVAPSQSLSITCTVSGFSLSIYSVHWVRQPPGKGLEWLGMIWGGGSSDYNSALKRRLSISKDNSKSQVFLKMNSLQTDDTAMYYCARNGNFYAMDYWGQGTSVTVSS VL: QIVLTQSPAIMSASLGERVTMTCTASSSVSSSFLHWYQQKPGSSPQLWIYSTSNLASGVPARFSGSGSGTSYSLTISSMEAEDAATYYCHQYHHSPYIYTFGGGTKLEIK	Ratio OD(Variant)/OD(WT)	0.96
KB001 parental mouse Fab FASEBA variant VH M104V (Fab, V domains shown) VH: EVQLKQSGPGLVAPSQSLSITCTVSGFSLSIYSVHWVRQPPGKGLEWLGMIWGGGSSDYNSALKSRLSISKDNSKSQVFLKMNSLQTDDTAMYYCARNGNFYAVDYWGQGTSVTVSS VL: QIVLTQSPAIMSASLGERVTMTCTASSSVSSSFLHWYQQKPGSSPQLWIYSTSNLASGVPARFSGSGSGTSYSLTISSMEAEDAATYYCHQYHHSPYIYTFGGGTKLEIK	Ratio OD(Variant)/OD(WT)	0.85
KB001 parental mouse Fab FASEBA variant VH F101M (Fab, V domains shown) VH: EVQLKQSGPGLVAPSQSLSITCTVSGFSLSIYSVHWVRQPPGKGLEWLGMIWGGGSSDYNSALKSRLSISKDNSKSQVFLKMNSLQTDDTAMYYCARNGNMYAMDYWGQGTSVTVSS VL: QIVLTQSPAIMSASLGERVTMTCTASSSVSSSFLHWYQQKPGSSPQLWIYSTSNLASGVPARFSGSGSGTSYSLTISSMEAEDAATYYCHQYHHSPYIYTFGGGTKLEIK	Ratio OD(Variant)/OD(WT)	0.891
